System: Escherichia coli
Assay: Antibacterial activity against Escherichia coli ATCC 25922 assessed as bacterial growth inhibition by CLSI protocol agar-based assay
Format: functional
For each of the compounds below, state its MIC.

Here is how some compounds turned out for MIC.
>  <CHEM SMILES>
COc1ccc2nc(CNC34CCC(CCc5c(F)cnc6ccc(=O)n(CCO)c56)(CC3)OC4)c(F)cc2n1

>  <TARGET OR TEST SYSTEM>
Escherichia coli

>  <MIC>
> 16 µg/mL

$$$$
>  <CHEM SMILES>
Cn1cc(-c2ncc(CNC34CCC(CCc5c(F)cnc6ccc(=O)n(CCO)c56)(CC3)OC4)s2)cn1

>  <TARGET OR TEST SYSTEM>
Escherichia coli

>  <MIC>
> 32 µg/mL

$$$$
>  <CHEM SMILES>
O=c1ccc2ncc(F)c(CCC34CCC(NCc5cnc(-c6ncccn6)s5)(CC3)CO4)c2n1CCO

>  <TARGET OR TEST SYSTEM>
Escherichia coli

>  <MIC>
> 16 µg/mL

$$$$

Look at this compound and give its reported MIC. O=c1ccc2ncc(F)c(CCC34CCC(NCc5cnc(-c6cccnc6)s5)(CC3)CO4)c2n1CCO
> 16 µg/mL

* * *

For each of the compounds below, state its MIC.
Tested on: Pseudomonas aeruginosa
Test: Antibacterial activity against Pseudomonas aeruginosa PAO1 assessed as bacterial growth inhibition by CLSI protocol agar-based assay
Format: functional
Answers are plain numbers, in µg/mL.

Look at each compound and report its MIC.
1. CN(C)CCn1c(=O)ccc2ncc(F)c(CCC34CCC(NCc5ccc6c(n5)NC(=O)CO6)(CC3)CO4)c21
2. O=C1COc2ccc(C(=O)NC34CCC(CCc5c(F)cnc6ccc(=O)n(CCO)c56)(CC3)OC4)nc2N1

1: 8; 2: 32

Look at each compound and report its MIC.
1. CN(C)C(=O)Cn1c(=O)ccc2ncc(F)c(CCC34CCC(NCc5ccc6c(n5)NC(=O)CO6)(CC3)CO4)c21
2. NCCn1c(=O)ccc2ncc(F)c(CCC34CCC(NCc5ccc6c(n5)NC(=O)CO6)(CC3)CO4)c21
3. COc1ccc2ncc(F)c(C[C@H](O)C34CCC(NCc5ccc6c(n5)NC(=O)CO6)(CC3)CO4)c2n1

64
2
8

* * *

For each of the molecules below, state its MIC.
System: Pseudomonas aeruginosa
Experiment: Antibacterial activity against Pseudomonas aeruginosa PAO1 assessed as bacterial growth inhibition by CLSI protocol agar-based assay
Type: functional

Here is how some molecules turned out for MIC.
>  <CHEM SMILES>
O=c1ccc2ncc(F)c(C[C@H](O)C34CCC(NCc5cc6c(cn5)OCCO6)(CC3)CO4)c2n1CCO

>  <TARGET OR TEST SYSTEM>
Pseudomonas aeruginosa

>  <MIC>
> 128 µg/mL

$$$$
>  <CHEM SMILES>
O=c1ccc2nc(CNC34CCC(CCc5c(F)cnc6ccc(=O)n(CCO)c56)(CC3)OC4)c(F)cc2[nH]1

>  <TARGET OR TEST SYSTEM>
Pseudomonas aeruginosa

>  <MIC>
> 16 µg/mL

$$$$

--- query ---
Write down the reported MIC of O=C(NC12CCC(CCc3c(F)cnc4ccc(=O)n(CCO)c34)(CC1)OC2)c1cc2c(cn1)OCCC2 , test system: Pseudomonas aeruginosa.
> 32 µg/mL

* * *

For each of the compounds below, state its MIC.
System: Escherichia coli
Experiment: Antibacterial activity against Escherichia coli ATCC 25922 assessed as bacterial growth inhibition by CLSI protocol agar-based assay
Format: functional

>  <CHEM SMILES>
O=c1ccc2ncc(F)c(CCC34CCC(NCc5cnc(C6CCCCC6)s5)(CC3)CO4)c2n1CCO

>  <MIC>
> 32 µg/mL

$$$$
>  <CHEM SMILES>
O=c1ccc2ncc(F)c(CCC34CCC(NCc5ccc6nonc6c5)(CC3)CO4)c2n1CCO

>  <MIC>
> 64 µg/mL

$$$$
>  <CHEM SMILES>
O=c1ccc2nc(CNC34CCC(CCc5c(F)cnc6ccc(=O)n(CCO)c56)(CC3)OC4)c(F)cc2[nH]1

>  <MIC>
> 16 µg/mL

$$$$
>  <CHEM SMILES>
C[C@@H]1CCc2cc(CNC34CCC(CCc5c(F)cnc6ccc(=O)n(CCO)c56)(CC3)OC4)ncc2O1

>  <MIC>
> 64 µg/mL

$$$$
>  <CHEM SMILES>
O=c1ccc2ncc(F)c(CCC34CCC(NCc5cn(-c6ncccn6)cn5)(CC3)CO4)c2n1CCO

>  <MIC>
> 32 µg/mL

$$$$
>  <CHEM SMILES>
O=c1ccc2ncc(F)c(CCC34CCC(NCc5cc(-c6cccs6)on5)(CC3)CO4)c2n1CCO

>  <MIC>
> 128 µg/mL

$$$$

--- query ---
Look at this compound and give its reported MIC. O=C(O)Cn1c(=O)ccc2ncc(F)c(CCC34CCC(NCc5ccc6c(n5)NC(=O)CO6)(CC3)CO4)c21
> 64 µg/mL

Cited source for all entries: ChEMBL document CHEMBL5223095
